inhibition at 10 µM reference
system: MDA-MB-231; assay: Antiproliferative activity against human MDA-MB-231 cells assessed as inhibition of cell growth at 10 uM measured after 72 hrs by MTT assay relative to control; format: functional
Please reply with the bare figure in % and do not write the unit itself.

{"Compound": "CC(C)(C)c1cc2c(O)c(c1)Cc1cc(C(C)(C)C)cc(c1OCCCC(=O)NCCCCCO)Cc1cc(C(C)(C)C)cc(c1O)Cc1cc(C(C)(C)C)cc(c1OCCCC(=O)NCCCCCO)C2", "Assay System": "MDA-MB-231", "Unit": "%", "inhibition at 10 µM": 34.4}
{"Compound": "CC(C)(C)c1cc2c(O)c(c1)Cc1cc(C(C)(C)C)cc(c1OCCCC(=O)N(CCO)CCO)Cc1cc(C(C)(C)C)cc(c1O)Cc1cc(C(C)(C)C)cc(c1OCCCC(=O)N(CCO)CCO)C2", "Assay System": "MDA-MB-231", "Unit": "%", "inhibition at 10 µM": 80}
{"Compound": "CCC(Oc1c2cc(C(C)(C)C)cc1Cc1cc(C(C)(C)C)cc(c1O)Cc1cc(C(C)(C)C)cc(c1OC(CC)C(=O)NCCCO)Cc1cc(C(C)(C)C)cc(c1O)C2)C(=O)NCCCO (stereo not given)", "Assay System": "MDA-MB-231", "Unit": "%", "inhibition at 10 µM": 80.1}
{"Compound": "CC(C)(C)c1cc2c(O)c(c1)Cc1cc(C(C)(C)C)cc(c1OCCCCCC(=O)NCCCCCO)Cc1cc(C(C)(C)C)cc(c1O)Cc1cc(C(C)(C)C)cc(c1OCCCCCC(=O)NCCCCCO)C2", "Assay System": "MDA-MB-231", "Unit": "%", "inhibition at 10 µM": 31.2}
{"Compound": "CC(Oc1c2cc(C(C)(C)C)cc1Cc1cc(C(C)(C)C)cc(c1O)Cc1cc(C(C)(C)C)cc(c1OC(C)C(=O)N(CCO)CCO)Cc1cc(C(C)(C)C)cc(c1O)C2)C(=O)N(CCO)CCO (stereo not given)", "Assay System": "MDA-MB-231", "Unit": "%", "inhibition at 10 µM": 91.3}
{"Compound": "CC(C)(C)c1cc2c(O)c(c1)Cc1cc(C(C)(C)C)cc(c1OCCCCCC(=O)NCCCO)Cc1cc(C(C)(C)C)cc(c1O)Cc1cc(C(C)(C)C)cc(c1OCCCCCC(=O)NCCCO)C2", "Assay System": "MDA-MB-231", "Unit": "%", "inhibition at 10 µM": 30.1}
{"Compound": "CC(C)(C)c1cc2c(O)c(c1)Cc1cc(C(C)(C)C)cc(c1OCCCCCC(=O)N(CCO)CCO)Cc1cc(C(C)(C)C)cc(c1O)Cc1cc(C(C)(C)C)cc(c1OCCCCCC(=O)N(CCO)CCO)C2", "Assay System": "MDA-MB-231", "Unit": "%", "inhibition at 10 µM": 34.5}
{"Compound": "CC(Oc1c2cc(C(C)(C)C)cc1Cc1cc(C(C)(C)C)cc(c1O)Cc1cc(C(C)(C)C)cc(c1OC(C)C(=O)NCCCO)Cc1cc(C(C)(C)C)cc(c1O)C2)C(=O)NCCCO (stereo not given)", "Assay System": "MDA-MB-231", "Unit": "%", "inhibition at 10 µM": 90.1}
{"Compound": "CC(Oc1c2cc(C(C)(C)C)cc1Cc1cc(C(C)(C)C)cc(c1O)Cc1cc(C(C)(C)C)cc(c1OC(C)C(=O)NCCO)Cc1cc(C(C)(C)C)cc(c1O)C2)C(=O)NCCO (stereo not given)", "Assay System": "MDA-MB-231", "Unit": "%", "inhibition at 10 µM": 89.2}

Note: attention shifts to another entry.
Give a short answer stating reported inhibition at 10 µM for CCC(Oc1c2cc(C(C)(C)C)cc1Cc1cc(C(C)(C)C)cc(c1O)Cc1cc(C(C)(C)C)cc(c1OC(CC)C(=O)NCCCCCO)Cc1cc(C(C)(C)C)cc(c1O)C2)C(=O)NCCCCCO (stereo not given) .
63.7

Values were extracted from ChEMBL document CHEMBL4732096.
